ASSAY DETAILS: Log P by HPLC on reversed phase columns (EEC directive 79/831 Annex V.A8)
Format: physicochemical
CONDITION SUMMARY: method [a]: HPLC/LC-MS at pH 2.7, 0.1% formic acid in water / acetonitrile gradient
Provide the reported LogP of each item.

## Task Please look up its LogP: CCC1(C(O)(Cc2ccnnc2Cl)Cn2cncn2)CC1 (centres unmarked)
## Result 1.59^[a]

## Task Please look up its LogP: CC(C)(CCl)C(O)(Cc1ccnnc1Cl)Cn1cncn1 (centres unmarked)
## Result 1.70^[a]

## Task Please look up its LogP: OC(Cc1cc(Cl)nnc1Cl)(Cn1cncn1)C1CC1 (centres unmarked)
## Result 1.49^[a]

## Task Please look up its LogP: OC(Cc1ccnnc1Cl)(Cn1cncn1)C1CC1 (centres unmarked)
## Result 0.84^[a]

## Task Please look up its LogP: OC(Cc1ccc(Cl)cc1Cl)(Cc1cc(Cl)nnc1Cl)Cn1cncn1 (centres unmarked)
## Result 2.96^[a]

## Task Please look up its LogP: CC(CF)(CF)C(O)(Cc1ccnnc1Cl)Cn1cncn1 (centres unmarked)
## Result 1.28^[a]

## Task Please look up its LogP: CC(C)(CF)C(O)(Cc1ccnnc1Cl)Cn1cncn1 (centres unmarked)
## Result 1.31^[a]

## Task Please look up its LogP: CCC1(C(O)(Cc2cc(Cl)nnc2Cl)Cn2cncn2)CC1 (centres unmarked)
## Result 2.18^[a]

## Task Please look up its LogP: CC(C)(Cc1ccc(Cl)cc1)C(O)(Cc1ccnnc1Cl)Cn1cncn1 (centres unmarked)
## Result 2.75^[a]

## Task Please look up its LogP: OC(Cc1ccc(Cl)cc1Cl)(Cc1ccnnc1Cl)Cn1cncn1 (centres unmarked)
## Result 2.34^[a]

## Task Please look up its LogP: C=CC(C)(C)C(O)(Cc1ccnnc1Cl)Cn1cncn1 (centres unmarked)
## Result 1.60^[a]

Values were extracted from patent US20170303540A1.
